Consider the following compounds and their measured growth inhibition readings.
Test: NCI Yeast Anticancer Drug Screen. Data for the mec2-1 strain (AID 157)
Details: S. cerevisiae mec2-1 strain, at 50.0 µM, active compounds read high
Experimental: Growth inhibition of yeast strains with defined genetic alterations is measured as a screen for potential anti-cancer activity. Selected strains with alterations in DNA damage repair or cell cycle control were exposed to compounds and growth inhibition was measured relative to vehicle treated controls. The strain used in this assay is mec2-1
This is part of a sample that, as a whole, favours compounds with a hit. Of some 79,000 tested, about 15% had one in any assay.
Just the number in %, nothing appended.

>>> reported_value("CCCCCCCCCCCCCCCCSC1=C(Cl)C(=O)C(OC)=C(OC)C1=O")
-4.7
>>> reported_value("CC(C)Cn1cnc2c(Sc3c([N+](=O)[O-])ncn3C)nc(N)nc21")
-14.1
>>> reported_value("COCc1nc2c(=O)[nH]c(N)nc2[nH]c1=O")
-3.55
>>> reported_value("COc1ccc(C(=O)CCN(C)C)c2ccccc12")
-19.8
>>> reported_value("CC(C)=NNC(=O)c1ccccc1O")
-7.7
>>> reported_value("O=C1OCc2c1cc1cc3c(cc1c2-c1ccc2c(c1)OCO2)OCO3")
-36.1
>>> reported_value("O=c1oc2ccc(Cl)cc2c(=O)n1-c1cc(Cl)ccc1[N+](=O)[O-]")
-21
>>> reported_value("CCCCC/C(C)=C\\CBr")
-2.65
>>> reported_value("CNc1nc(N(C)C)nc(N(C)C)n1")
16.9

With those in mind, consider the next compound.
Asked: Reported growth inhibition, compound Cc1ccc2ccccc2c1CC(=O)NN : ____
Given back: -26.8
